# inhibition listing for each entry below
# Test Target: UniProt P30542
# Sequence (whole entry): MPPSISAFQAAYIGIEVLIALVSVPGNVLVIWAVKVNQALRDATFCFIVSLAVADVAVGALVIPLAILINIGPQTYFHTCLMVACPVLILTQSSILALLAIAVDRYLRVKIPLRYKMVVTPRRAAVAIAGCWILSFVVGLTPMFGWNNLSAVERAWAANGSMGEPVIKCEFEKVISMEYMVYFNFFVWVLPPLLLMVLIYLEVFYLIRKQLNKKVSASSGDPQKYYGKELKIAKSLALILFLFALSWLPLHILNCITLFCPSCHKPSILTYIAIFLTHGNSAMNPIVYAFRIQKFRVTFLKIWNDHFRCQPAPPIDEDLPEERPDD
# Test: Allosteric enhancement of human adenosine A1 receptor expressed in CHO cells assessed as inhibition of CCPA-induced cAMP production at 100 nM after 10 mins
# Format: functional, cell-based
Measured Attribute: inhibition (%)

[[record]]
compound = "CCN(Cc1csc(N)c1C(=O)c1ccc(Cl)cc1)c1ccccc1"
numeric_result = 18

[[record]]
compound = "Nc1scc(CSc2ccccc2)c1C(=O)c1ccc(Cl)cc1"
numeric_result = 21

[[record]]
compound = "CN(Cc1csc(N)c1C(=O)c1ccc(Cl)cc1)c1ccc(Cl)cc1"
numeric_result = 21

[[record]]
compound = "CCN(CC)Cc1c(-c2ccccc2)sc(N)c1C(=O)c1ccc(Cl)cc1"
numeric_result = 27

[[record]]
compound = "CN(Cc1csc(N)c1C(=O)c1ccc(Cl)cc1)c1ccc(F)cc1"
numeric_result = 26

[[record]]
compound = "CCCCN(C)Cc1c(-c2ccccc2)sc(N)c1C(=O)c1ccc(Cl)cc1"
numeric_result = 12

[[record]]
compound = "CN(Cc1ccccc1)Cc1csc(N)c1C(=O)c1ccc(Cl)cc1"
numeric_result = 40

[[record]]
compound = "Nc1scc(CN2CCc3[nH]c4ccccc4c3C2)c1C(=O)c1ccc(Cl)cc1"
numeric_result = 11

[[record]]
compound = "COc1ccc2c(c1)cc1n2CCN(Cc2csc(N)c2C(=O)c2ccc(Cl)cc2)C1"
numeric_result = 41

[[record]]
compound = "CC(C)(C)c1ccc2c(c1)OC1(CCN(Cc3csc(N)c3C(=O)c3ccc(Cl)cc3)CC1)O2"
numeric_result = 55

[[record]]
compound = "CCN(CC)Cc1csc(N)c1C(=O)c1ccc(Cl)cc1"
numeric_result = 12

[[record]]
compound = "Cn1c2c(c3cc(Cl)ccc31)CN(Cc1csc(N)c1C(=O)c1ccc(Cl)cc1)CC2"
numeric_result = 28

[[record]]
compound = "Nc1scc(CN2CCn3c(cc4cc(Cl)ccc43)C2)c1C(=O)c1ccc(Cl)cc1"
numeric_result = 60

[[record]]
compound = "CC(C)N(Cc1c(-c2ccccc2)sc(N)c1C(=O)c1ccc(Cl)cc1)C(C)C"
numeric_result = 12

[[record]]
compound = "CC(C)N(Cc1c(Br)sc(N)c1C(=O)c1ccc(Cl)cc1)C(C)C"
numeric_result = 14

[[record]]
compound = "Nc1scc(CN2CCc3[nH]c4ccc(Cl)cc4c3C2)c1C(=O)c1ccc(Cl)cc1"
numeric_result = 13

[[record]]
compound = "C=CCN(CC=C)Cc1c(Br)sc(N)c1C(=O)c1ccc(Cl)cc1"
numeric_result = 13

[[record]]
compound = "Nc1scc(COc2ccccc2)c1C(=O)c1ccc(Cl)cc1"
numeric_result = 11

[[record]]
compound = "CN(Cc1c(-c2ccccc2)sc(N)c1C(=O)c1ccc(Cl)cc1)C(C)(C)C"
numeric_result = 13

[[record]]
compound = "CN(Cc1csc(N)c1C(=O)c1ccc(Cl)cc1)c1ccccc1"
numeric_result = 16

[[record]]
compound = "Nc1scc(CN2CCc3ccccc3C2)c1C(=O)c1ccc(Cl)cc1"
numeric_result = 43

[[record]]
compound = "Nc1sc(-c2ccccc2)c(CN2CCCCC2)c1C(=O)c1ccc(Cl)cc1"
numeric_result = 22

[[record]]
compound = "Cc1ccc2c(c1)OC1(CCN(Cc3csc(N)c3C(=O)c3ccc(Cl)cc3)CC1)O2"
numeric_result = 45

[[record]]
compound = "CN(Cc1ccccc1)Cc1c(-c2ccccc2)sc(N)c1C(=O)c1ccc(Cl)cc1"
numeric_result = 11

[[record]]
compound = "CC(C)c1ccc(OCc2csc(N)c2C(=O)c2ccc(Cl)cc2)cc1"
numeric_result = 18

[[record]]
compound = "Nc1scc(CN2CCN3c4ccc(Cl)cc4CC3C2)c1C(=O)c1ccc(Cl)cc1 (stereo unspecified)"
numeric_result = 11

[[record]]
compound = "Nc1scc(CN2CCC3(CC2)Oc2cccc(F)c2O3)c1C(=O)c1ccc(Cl)cc1"
numeric_result = 52

[[record]]
compound = "CN(Cc1csc(N)c1C(=O)c1ccc(Cl)cc1)c1ccc(C(F)(F)F)cc1"
numeric_result = 31

[[record]]
compound = "CC(C)N(Cc1csc(N)c1C(=O)c1ccc(Cl)cc1)C(C)C"
numeric_result = 14

[[record]]
compound = "CCCN(CCC)Cc1csc(N)c1C(=O)c1ccc(Cl)cc1"
numeric_result = 10

[[record]]
compound = "Cn1c2c(c3ccccc31)CN(Cc1csc(N)c1C(=O)c1ccc(Cl)cc1)CC2"
numeric_result = 27

[[record]]
compound = "Nc1scc(CN2CCn3c(cc4cc(F)ccc43)C2)c1C(=O)c1ccc(Cl)cc1"
numeric_result = 65

[[record]]
compound = "Cc1cccc2c1OC1(CCN(Cc3csc(N)c3C(=O)c3ccc(Cl)cc3)CC1)O2"
numeric_result = 47

[[record]]
compound = "Nc1scc(COc2ccc(F)cc2)c1C(=O)c1ccc(Cl)cc1"
numeric_result = 15

[[record]]
compound = "Cc1ccc(OCc2csc(N)c2C(=O)c2ccc(Cl)cc2)cc1"
numeric_result = 16

[[record]]
compound = "Cc1ccc2c(c1)CC1CN(Cc3csc(N)c3C(=O)c3ccc(Cl)cc3)CCN21 (stereo unspecified)"
numeric_result = 13

